Values from patent US12616760B2

biological target: Aβ40 (Homo sapiens); construct: The extent of Aβ40 aggregation in the presence of increasing concentrations of azacyclopeptides; test: Thioflavin T (ThT) fluorescence assay of Aβ40 aggregation; assay type: biochemical; details: Aβ:peptide 1:5; ThT; 10 μM soluble Aβ40
Sequence (P05067 672-711 limits assumed): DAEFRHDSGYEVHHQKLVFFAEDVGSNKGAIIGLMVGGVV
Square brackets hold non-standard residues; d marks the D form. Peptide text beside a SMILES is read from it. Nle = CCCC[C@H](N)C(=O)O; azaGly = NNC(=O)O
value-type: Inhibition of amyloidogenic activity(%)
# value in %; strip the unit string

Example entries and their recorded answers appear below.
CCCC[C@@H]1NC(=O)[C@@H](CC(C)C)NC(=O)[C@H](CCCCN)NC(=O)[C@@H](CO)NC(=O)NNC(=O)[C@@H](Cc2c[nH]c3ccccc23)NC1=O [Compound 4, c(D-Leu-L-Nle-D-Trp-Gly*-D-Ser-L-Lys)] (cyclo(K[dL][Nle][dW][azaGly][dS])) | 75
CCCC[C@@H]1NC(=O)[C@@H](CC(C)C)NC(=O)[C@H](CCCCN)NC(=O)[C@@H](CO)NC(=O)[C@H](Cc2c[nH]cn2)NC(=O)NNC1=O [Compound 5, c(D-Leu-L-Nle-Gly*-L-His-D-Ser-L-Lys)] (cyclo(K[dL][Nle][azaGly]H[dS])) | 91.1
CC(C)C[C@H]1NC(=O)[C@H](CCCCN)NC(=O)[C@@H](CO)NC(=O)[C@H](Cc2c[nH]cn2)NC(=O)[C@@H](Cc2c[nH]c3ccccc23)NC(=O)NNC1=O [Compound 6, c(D-Leu-Gly*-D-Trp-L-His-D-Ser-L-Lys)] (cyclo(K[dL][azaGly][dW]H[dS])) | 80.1

// moving on: another record for Inhibition of amyloidogenic activity(%)
Qu. Item CCCC[C@@H]1NC(=O)[C@@H](CC(C)C)NC(=O)[C@H](CCCCN)NC(=O)[C@@H](CO)NC(=O)[C@H](Cc2c[nH]cn2)NC(=O)[C@@H](Cc2c[nH]c3ccccc23)NC1=O [Compound 1, reference compound] (cyclo(K[dL][Nle][dW]H[dS])) has what recorded Inhibition of amyloidogenic activity(%)?
Ans. 84.7
